The origin of these recorded values is paper PMC9861175.

System: Methicillin-resistant Staphylococcus aureus ATCC 33591
measurementNotes: Antibacterial broth microdilution growth inhibition (OD600) against MRSA
Format: cell-based
conditionLabel: Staphylococcus aureus, 20 h, read-out: IC50 MRSA, isolated compounds, MRSA ATCC 33591, 37 °C
Exercise: for every item that follows, state its recorded IC50.
Answers are plain numbers, in µM.

• COC1=C(c2c(OC)cc3cc4c(c(O)c3c2O)C(=O)OC(C)C4)C(=O)c2c(cc3c(c2O)C(=O)OC(C)C3)C1=O (stereo not drawn) [Viomellein] = 2.9

Problem: Give IC50 for the following compound: COC1=C(C2=C(OC)C(=O)c3cc4c(c(O)c3C2=O)C(=O)OC(C)C4)C(=O)c2c(cc3c(c2O)C(=O)OC(C)C3)C1=O (stereo not drawn) [Xanthomegnin]
Solution: 35.3
